Exercise: for every item that follows, state its recorded growth inhibition.
# MEASUREMENT DESCRIPTION: NCI Yeast Anticancer Drug Screen. Data for the mec2-1 strain (AID 157)
# CONDITION INFO: S. cerevisiae mec2-1 strain, active compounds read high; at 50.0 µM unless noted
Compounds without any hit were thinned out: in the full panel of roughly 79,000, 15% have a hit.
I only need the number, in %, no unit after it.

Name the reported growth inhibition value associated with the compound Cc1cn(C2CC(O)C(CO)O2)c(=O)nc1N1CCSCC1 (stereo unspecified) -7.05

Look up growth inhibition: CS(C)=C(C(=O)c1ccccc1)/C(=C/C(=O)c1ccccc1)c1ccccc1 26.2

What does the data say about its growth inhibition? Entry: O=C1OC(C2OC(=O)C(=O)C2C2CCCCCCC2=O)C(C2CCCCCCC2=O)C1=O (stereo unspecified) 9.15

Name the recorded growth inhibition for CCOC(=O)C(=CN1CCNC1=S)C(=O)OCC . -33.6

Quick one: growth inhibition for Cc1ccc(C(=O)/C=C/C(=O)c2ccc(C)cc2)cc1 ? 29.9

Please report the recorded growth inhibition for NC(=S)c1cccc(OCCc2ccccc2)c1 . 99.4

# credit: PubChem BioAssay (NCI)
